test system: NCI-H226 lung; assay: NCI-60 one-dose screen, 48 h (100 = growth as untreated, 0 = no growth, -100 = all killed); details: 10 µM unless noted
About 83,000 compounds went through this panel and 20% of them were active in at least one assay; those are over-represented in the sample as a whole.
Quantity: growth (%)

compound=CC(C)(C)c1ccc(C(=O)Nc2sc3c(c2C(N)=O)CCC(=O)C3)cc1 quantitative_result=30.8
compound=N=C(N)c1ccc(-c2ccc(/C=C/c3ccccc3)s2)cc1 quantitative_result=84.7
compound=c1ccc2c(c1)ncn2-c1nc2ccccc2n2c1nc1ccccc12 quantitative_result=78.4
compound=CNC(=O)c1cc(Oc2ccc3nc(Nc4cc(Cl)cc(Cl)c4)ccc3c2)ccn1 quantitative_result=81.9
compound=CCCCCCCCN(CCCCCCCC)C(=N)c1ccnc2ccccc12 quantitative_result=56.5
compound="O=C1CCC(N2C(=O)c3cccc(NCCCC4CCN(CCNC(=O)c5cc6c(o5)C(=O)c5ccccc5C6=O)CC4)c3C2=O)C(=O)N1 (stereo unspecified)" quantitative_result=-69.2
